- EXPERIMENTAL_TARGET: rat VPAC2 receptor (Rattus norvegicus, UniProt P35000)
- Sequence (P35000 23-437): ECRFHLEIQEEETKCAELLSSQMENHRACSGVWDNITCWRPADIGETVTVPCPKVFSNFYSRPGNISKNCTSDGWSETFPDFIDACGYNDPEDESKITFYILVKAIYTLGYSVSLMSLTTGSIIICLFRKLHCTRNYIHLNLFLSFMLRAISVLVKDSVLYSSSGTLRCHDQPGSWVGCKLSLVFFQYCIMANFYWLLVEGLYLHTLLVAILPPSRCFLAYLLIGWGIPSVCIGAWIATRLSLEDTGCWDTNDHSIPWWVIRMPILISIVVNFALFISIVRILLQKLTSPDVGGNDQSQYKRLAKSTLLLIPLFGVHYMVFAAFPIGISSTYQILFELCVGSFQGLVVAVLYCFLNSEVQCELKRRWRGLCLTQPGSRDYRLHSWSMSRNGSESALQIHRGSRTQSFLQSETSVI
- ASSAY: DiscoveRx in vitro potency, CHO-PO cells transiently transfected with rat VPAC 2 receptor DNA
- Assay type: cell-based
- Design: expressed in transfected cells; host or cells: CHO-PO, transient
Where no end group is shown, it is not given here. [ ]: non-standard residue; d: D form. The star is where a group is joined. hArg = N=C(N)NCCCC[C@H](N)C(=O)O; Nle = CCCC[C@H](N)C(=O)O; Orn = NCCC[C@H](N)C(=O)O; Hexanoyl = CCCCCC(=O)*; Aib = CC(C)(N)C(=O)O
Entries annotated with measured EC50

Hexanoyl-HSDAVFTDNYTRLR[Aib]Q[Nle]AA[Aib]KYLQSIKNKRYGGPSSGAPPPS [Agonist P325]
0.04 nM
Hexanoyl-HSDAVFTDNYTRLRKQVAAK[Aib]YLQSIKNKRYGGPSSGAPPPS [Agonist P170]
0.15 nM
Hexanoyl-HSDAVFTDNYTRLR[Aib]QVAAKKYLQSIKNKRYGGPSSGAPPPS [Agonist P168]
0.05 nM
Hexanoyl-HSDAVFTDNYTRLK[Aib]QVAA[Aib]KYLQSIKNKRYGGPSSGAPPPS [Agonist P318]
0.09 nM
Hexanoyl-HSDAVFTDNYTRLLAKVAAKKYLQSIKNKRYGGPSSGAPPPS [Agonist P135]
0.05 nM

Problem: Please give measured EC50 of the following entry: Hexanoyl-HSDAVFTDNYT[Orn]LR[Aib]QVAA[Aib]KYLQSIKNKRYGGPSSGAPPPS [Agonist P344]
Solution: 0.06 nM

Problem: Please give measured EC50 of the following entry: Hexanoyl-HSDAVFTDNYTRL[hArg]KQVAAKKYLQSIKNKRYGGPSSGAPPPS [Agonist P305]
Solution: 0.04 nM

Problem: Please give measured EC50 of the following entry: Hexanoyl-HSDAVFTDNYTRLR[Aib]QVAA[Aib]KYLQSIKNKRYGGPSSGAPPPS [Agonist P261]
Solution: 0.04 nM
